Data provenance: ChEMBL document CHEMBL1201862

Tested on: HCC 2998
measurement_description: NCI tumour cell line growth inhibition, 48 h
Calls of active or inactive are those of the source. No stated cut-off is given here; in the data, active = GI50 up to about 1.1 µM and inactive = higher. *1 amine or outer side, *2 acyl side, *3 side chain or, on linkers, in order; H or OH if unused. Where a SMILES comes first, the peptide text is derived from it. [ ]: non-standard residue; d: D form. The star is where a group is joined. ξ: configuration not given here. X53 = CC(C)C[C@H](N[*:1])C1=N[C@H](C(=O)[*:2])CS1; Ile(3ξ) = CCC(C)[C@H](N)C(=O)O; Allyl(1,1-Me2) = C=CC(C)(C)*
Allowed answers: active, inactive

Task item: For this compound, state the assay outcome: Cc1cccc(NC(=O)CC(=O)N2N=C(N3c4ccccc4Sc4ccccc43)CC2c2ccccc2)c1 (centres undefined)
Reply: inactive

Task item: Look up the recorded call for COc1cc2c(cc1OC)CCc1cc(OC)c(OC)cc1CC2 in this test.
Reply: inactive

Task item: Look up the recorded call for COc1cc2c(/C=C3/C(=O)Nc4ccccc43)c(Cl)n(Cc3ccc(Cl)cc3)c2cc1C in this test.
Reply: active

Task item: Which outcome was assigned to Nc1ccn(C2OC(COP(=O)(O)O)C(O)C2O)c(=O)n1 (centres undefined) in this test?
Reply: inactive

Task item: Outcome logged for Cc1ccc(S(=O)(=O)NNC(=O)Nc2ccc(Cl)cc2)cc1 in this assay:
Reply: inactive

Task item: Hi, do you know how CCOC(=O)Cc1csc(Nc2ccccc2[N+](=O)[O-])n1 came out in this test?
Reply: inactive

Task item: Give the logged outcome of this assay for the following compound: S=C(/N=c1/sc(Nc2ccccc2)nc2sc3c(c12)CCCC3)Nc1ccccc1
Reply: inactive

Task item: Query: recorded result category for C=CC(C)(C)OC[C@@H]1NC(=O)CNC(=O)[C@@H]2CCCN2C(=O)[C@H](C(C)CC)NC(=O)[C@@H]2CSC(=N2)[C@H](CC(C)C)NC1=O (some centres undefined) (cyclo(GS(Allyl(1,1-Me2))[X53][Ile(3ξ)]P)) in this test
Reply: inactive

Task item: Given COc1cc(/C=C/c2nc(NC(=S)Nc3ccccc3)nnc2C)cc(OC)c1OC , state the outcome it received in this test.
Reply: inactive
